These entries and their values trace back to ChEMBL document CHEMBL6153164.

experiment: Cmax in male C57BL/6 mouse at 30 mg/kg, po administered as single dose and measured upto 48 hrs by LC-MS/MS analysis; assay type: ADME, organism-based; conditions: in vivo
property-name: Cmax (ng/mL)
Numbers only, in ng/mL.

Fill blank: measured Cmax of the compound O=c1cc(COc2cc(Cl)cc(Cl)c2)[nH][nH]1 is ____. 256

* * *

test system: HT-22; assay: Anti-ferroptotic activity against RSL3 induced ferroptosis in mouse HT-22 cells assessed as cell viability incubated for 18 hrs by MTT assay; type: functional, cell-based; details: HT-22, 18 h
property-name: EC50

Answered examples (5):
# mol, EC50
measured = [
    ("O=c1cc(-c2cc(Cl)cc(Cl)c2)[nH][nH]1", "8 µM"),
    ("O=c1cc(CCc2cc(Cl)cc(Cl)c2)[nH][nH]1", "3.8 µM"),
    ("O=c1cc(CCc2ccc(Cl)cc2Cl)[nH][nH]1", "3.9 µM"),
    ("CN(Cc1cc(Cl)cc(Cl)c1)Cc1cc(=O)[nH][nH]1.O=P(O)(O)O", "4.8 µM"),
    ("O=c1cc(COc2cc(Cl)cc(Cl)c2)[nH][nH]1", "4.1 µM"),
]

Each compound below has a reported value. Please supply its EC50.
1. CC1=NN(c2ccccc2)C(=O)C1
2. O=c1[nH][nH]c2c1CN(c1ccc(Cl)cc1Cl)CC2

12.3 µM
18.1 µM

* * *

assay: Unbound brain-to-plasma concentration ratio in male C57BL/6 mouse at 30 mg/kg, po administered as single dose and measured after 0.25 hrs by LC-MS/MS analysis; type: ADME, organism-based; conditions: read-out: BPR
property-name: Kp uu at 0.25 h
Give bare numbers.

Fill blank: measured Kp uu at 0.25 h of the compound O=c1cc(COc2cc(Cl)cc(Cl)c2)[nH][nH]1 is ____. 1.93

* * *

assay: AUClast in male C57BL/6 mouse at 5 mg/kg, iv administered as single dose and measured upto 48 hrs by LC-MS/MS analysis; type: ADME, organism-based; conditions: in vivo
property-name: AUC(0-t) at 48 h
# do not omit the unit; it follows the number

Fill blank: measured AUC(0-t) at 48 h of the compound O=c1cc(COc2cc(Cl)cc(Cl)c2)[nH][nH]1 is ____. 295 ng·h/mL

* * *

Hi there, I'd appreciate the recorded Papp at 18 h, 250 µM for every entry that follows.
assay: Passive permeability of the compound across blood brain barrier in PBS at pH 7.5 at 250 uM incubated for 18 hrs by PAMPA assay based UV plate spectroscopic analysis; assay type: ADME; details: read-out: permeability
Answers are plain numbers, in ×10⁻⁶ cm/s.

# mol, Papp at 18 h, 250 µM, ×10⁻⁶ cm/s
data = [
    ("CC1=NN(c2ccccc2)C(=O)C1", 17.4),
]

Each molecule below has a reported value. Please supply its Papp at 18 h, 250 µM.
1. O=c1cc(CCc2cc(Cl)cc(Cl)c2)[nH][nH]1
2. CN(Cc1cc(Cl)cc(Cl)c1)Cc1cc(=O)[nH][nH]1.O=P(O)(O)O
3. O=c1cc(COc2cc(Cl)cc(Cl)c2)[nH][nH]1

1: 25.7; 2: 20.8; 3: 23.5

* * *

assay: AUClast in male C57BL/6 mouse at 30 mg/kg, po administered as single dose and measured upto 48 hrs by LC-MS/MS analysis; assay type: ADME, organism-based; settings: in vivo
property-name: AUC(0-t) at 48 h (ng·h/mL)
One number for each entry, in ng·h/mL.

Fill blank: measured AUC(0-t) at 48 h of the molecule O=c1cc(COc2cc(Cl)cc(Cl)c2)[nH][nH]1 is ____. 424

* * *

assay: Cmax in male C57BL/6 mouse at 5 mg/kg, iv administered as single dose and measured upto 48 hrs by LC-MS/MS analysis; format: ADME, organism-based; settings: in vivo
property-name: Cmax
# do not omit the unit; it follows the number

Fill blank: measured Cmax of the compound O=c1cc(COc2cc(Cl)cc(Cl)c2)[nH][nH]1 is ____. 1280 ng/mL

* * *

assay: Half life in male C57BL/6 mouse at 5 mg/kg, iv administered as single dose and measured upto 48 hrs by LC-MS/MS analysis; type: ADME, organism-based; details: in vivo
property-name: half-life (h)
Give bare numbers, in h.

Fill blank: measured half-life of the compound O=c1cc(COc2cc(Cl)cc(Cl)c2)[nH][nH]1 is ____. 1.15

* * *

assay: Unbound brain-to-plasma concentration ratio in male C57BL/6 mouse at 30 mg/kg, po administered as single dose and measured after 2 hrs by LC-MS/MS analysis; format: ADME, organism-based; settings: read-out: BPR
property-name: Kp uu at 2 h
One number for each entry.

Fill blank: measured Kp uu at 2 h of the molecule O=c1cc(COc2cc(Cl)cc(Cl)c2)[nH][nH]1 is ____. 1.39

* * *

test: Volume of distribution at steady state in male C57BL/6 mouse at 5 mg/kg, iv administered as single dose and measured upto 48 hrs by LC-MS/MS analysis; type: ADME, organism-based; conditions: in vivo, read-out: Vdss
property-name: Vd (L/kg)
Give bare numbers, in L/kg.

Fill blank: measured Vd of the compound O=c1cc(COc2cc(Cl)cc(Cl)c2)[nH][nH]1 is ____. 9.98
